Recorded AC50 values for a group of molecules are listed next.
Molecular target: Mu-type opioid receptor (Homo sapiens); further: assay procedure not described here
Sequence (P35372 whole entry): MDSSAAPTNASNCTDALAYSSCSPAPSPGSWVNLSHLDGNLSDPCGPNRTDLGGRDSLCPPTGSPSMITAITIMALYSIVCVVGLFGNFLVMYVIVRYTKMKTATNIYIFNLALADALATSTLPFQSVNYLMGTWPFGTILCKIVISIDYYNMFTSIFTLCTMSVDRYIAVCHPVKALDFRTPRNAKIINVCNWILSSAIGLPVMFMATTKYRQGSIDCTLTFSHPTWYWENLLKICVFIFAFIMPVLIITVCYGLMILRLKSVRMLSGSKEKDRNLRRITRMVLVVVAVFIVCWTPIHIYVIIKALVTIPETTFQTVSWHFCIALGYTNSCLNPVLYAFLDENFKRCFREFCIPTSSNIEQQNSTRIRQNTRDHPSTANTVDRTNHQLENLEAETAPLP
Value kind: AC50

In [3]: df
Out[3]:
                                   molecule   result
0  CCCN(CCC)S(=O)(=O)c1ccc(C(=O)O)cc1 [PROBENECID]  > 30 µM
1  COc1ccc(CN2CCN(C(c3ccc(F)cc3)c3ccc(F)cc3)CC2)c(OC)c1OC [LOMERIZINE]   9.7 µM
2  CN(CCOc1ccc(CC2SC(=O)NC2=O)cc1)c1ccccn1 (centres undefined) [ROSIGLITAZONE]  > 10 µM
3  CCCCOc1ccc(C(=O)CCN2CCCCC2)cc1 [DYCLONINE]  > 10 µM

---

Parameter AC50, tested on Kappa-type opioid receptor (Homo sapiens), listed per item. Further: assay procedure not described here.
Sequence (P41145 whole entry): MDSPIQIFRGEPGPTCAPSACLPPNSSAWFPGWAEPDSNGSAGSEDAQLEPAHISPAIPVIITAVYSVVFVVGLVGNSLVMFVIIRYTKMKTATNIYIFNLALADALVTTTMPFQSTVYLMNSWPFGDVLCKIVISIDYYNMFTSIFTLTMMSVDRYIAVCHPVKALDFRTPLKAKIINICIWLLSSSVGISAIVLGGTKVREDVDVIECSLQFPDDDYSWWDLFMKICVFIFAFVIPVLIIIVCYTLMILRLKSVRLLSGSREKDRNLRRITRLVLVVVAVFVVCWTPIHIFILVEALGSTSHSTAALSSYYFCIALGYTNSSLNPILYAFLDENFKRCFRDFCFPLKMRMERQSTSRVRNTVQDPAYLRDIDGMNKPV
Value kind: AC50

                                    compound  value_kind   result
 0   CCCC(C)(COC(N)=O)COC(N)=O [MEPROBAMATE]        AC50  > 10 µM
 1  CCOC(=O)C(C)(C)Oc1ccc(Cl)cc1 [CLOFIBRATE]        AC50  > 10 µM
 2  CC=CC1=C(C(=O)O)N2C(=O)[C@@H](NC(=O)[C@H](N)c3ccc(O)cc3)[C@H]2SC1        AC50  > 30 µM
 3  Cn1cc(C(=O)[C@@H]2CCc3nc[nH]c3C2)c2ccccc21        AC50    17 µM
 4  CN(C)C/C=C/C(=O)Nc1cc2c(Nc3ccc(F)c(Cl)c3)ncnc2cc1O[C@H]1CCOC1        AC50  > 30 µM
 5              CN[C@@H](C)[C@@H](O)c1ccccc1        AC50  > 10 µM
 6  COc1ccc([C@@H]2CC(=O)c3c(O)cc(O)cc3O2)cc1O        AC50  > 10 µM
 7  CCC1(c2ccc(N)cc2)CCC(=O)NC1=O (stereo not drawn) [AMINOGLUTETHIMIDE]        AC50  > 30 µM
 8  CN(C)Cc1nnc2n1-c1ccc(Cl)cc1C(c1ccccc1)=NC2        AC50  3.29 µM
 9  CCCCCCCN(CC)CCCC(O)c1ccc(NS(C)(=O)=O)cc1 (stereo not drawn) [IBUTILIDE]        AC50  > 30 µM
10   CNC(=C[N+](=O)[O-])NCCSCc1csc(CN(C)C)n1        AC50  > 10 µM
11     Cc1cc(=O)n(-c2ccccc2)n1C [ANTIPYRINE]        AC50  > 10 µM
12  C=CC[N+]1([C@H]2C[C@H]3[C@@H]4CC[C@H]5C[C@H](O)[C@@H](N6CCOCC6)C[C@]5(C)[C@H]4CC[C@]3(C)[C@H]2OC(C)=O)CCCC1        AC50  > 30 µM

---

Recorded AC50 values for a group of molecules are listed next.
Molecular target: Motilin receptor (Homo sapiens, UniProt O43193); further: assay procedure not described here
Sequence (O43193 whole entry): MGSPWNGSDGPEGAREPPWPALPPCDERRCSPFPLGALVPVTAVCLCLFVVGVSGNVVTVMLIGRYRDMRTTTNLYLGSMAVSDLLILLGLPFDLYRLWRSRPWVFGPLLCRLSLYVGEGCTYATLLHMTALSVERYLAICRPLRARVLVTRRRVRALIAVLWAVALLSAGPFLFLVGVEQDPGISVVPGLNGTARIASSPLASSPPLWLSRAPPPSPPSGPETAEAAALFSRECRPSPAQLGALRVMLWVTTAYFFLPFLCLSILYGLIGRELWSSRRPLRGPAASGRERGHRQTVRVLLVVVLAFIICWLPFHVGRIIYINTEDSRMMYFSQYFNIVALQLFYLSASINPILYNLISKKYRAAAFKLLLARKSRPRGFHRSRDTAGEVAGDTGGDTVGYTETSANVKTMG
Value kind: AC50

                                    molecule  value_kind    result
 0   CNC[C@H](O)c1ccc(O)c(O)c1 [EPINEPHRINE]        AC50   > 30 µM
 1  CC(CN1c2ccccc2Sc2ccccc21)N(C)C (stereo unspecified)        AC50   > 10 µM
 2  Cc1nnc(SCC2=C(C(=O)O)N3C(=O)[C@@H](NC(=O)Cn4cnnn4)[C@H]3SC2)s1        AC50  > 300 µM
 3  CCC(=O)O[C@](Cc1ccccc1)(c1ccccc1)[C@H](C)CN(C)C        AC50   > 10 µM
 4  COc1ccccc1OC1(C)OC(=O)c2ccccc2O1 (stereo unspecified)        AC50   > 30 µM
 5  CCCc1nc2c(C)cc(-c3nc4ccccc4n3C)cc2n1Cc1ccc(-c2ccccc2C(=O)O)cc1        AC50   > 30 µM
 6          Oc1ccc(CCNCCCCCCNCCc2ccccc2)cc1O        AC50   > 30 µM
 7             CCC1(CCC(C)C)C(=O)NC(=O)NC1=O        AC50   > 10 µM
 8         O=C(O)c1cccnc1Nc1cccc(C(F)(F)F)c1        AC50   > 10 µM
 9           Cc1ccc(C)c(OCCCC(C)(C)C(=O)O)c1        AC50   > 10 µM
10  C[C@]12C/C(=C/O)C(=O)C[C@@H]1CC[C@@H]1[C@@H]2CC[C@@]2(C)[C@H]1CC[C@]2(C)O        AC50   > 30 µM
11  CCOC(=O)C1=C(C)NC(C)=C(C(=O)OCC)C1c1ccccc1/C=C/C(=O)OC(C)(C)C        AC50   > 30 µM
12  C[C@]12C=CC(=O)C=C1CC[C@@H]1[C@@H]2CC[C@]2(C)OC(=O)CC[C@@H]12        AC50   > 10 µM
13              c1ccc(C2(N3CCCCC3)CCCCC2)cc1        AC50   > 30 µM
14           COc1ccc(C2C(=O)c3ccccc3C2=O)cc1        AC50   > 10 µM
15  CCC1(c2ccc(N)cc2)CCC(=O)NC1=O (stereo unspecified) [AMINOGLUTETHIMIDE]        AC50   > 30 µM
16  CC(C)(O/N=C(\C(=O)N[C@@H]1C(=O)N2C(C(=O)[O-])=C(C[n+]3ccccc3)CS[C@H]12)c1csc(N)n1)C(=O)O        AC50  > 300 µM
17  C[C@]12CCC(=O)C[C@@H]1CC[C@@H]1[C@@H]2CC[C@]2(C)[C@@H](O)CC[C@@H]12        AC50   > 30 µM
18      Clc1ccc(Cn2c(CN3CCCC3)nc3ccccc32)cc1        AC50   > 30 µM
19  CCC(NC(C)C)C(O)c1ccc(O)c2[nH]c(=O)ccc12 (stereo unspecified)        AC50   > 30 µM
20  COc1ccc([C@@H]2CC(=O)c3c(O)cc(O)cc3O2)cc1O        AC50   > 10 µM
21  CCN1CCCC1CNC(=O)c1cc(S(=O)(=O)CC)ccc1OC (stereo unspecified) [SULTOPRIDE]        AC50   > 30 µM
22  CCCN1CC(NS(=O)(=O)N(CC)CC)CC2Cc3c(O)cccc3CC21 (stereo unspecified) [QUINAGOLIDE]        AC50   > 30 µM
23         CCCN1CCCC[C@H]1C(=O)Nc1c(C)cccc1C        AC50   > 30 µM
24                COc1ccc2cc(CCC(C)=O)ccc2c1        AC50   > 10 µM
25  CC(=O)c1ccc(S(=O)(=O)NC(=O)NC2CCCCC2)cc1 [ACETOHEXAMIDE]        AC50   > 10 µM
26               O=C1c2ccccc2C(=O)C1c1ccccc1        AC50   > 10 µM
27           CN1CCN=C(c2ccccc2)c2cc(Cl)ccc21        AC50   > 30 µM
28           Cc1ccnc2c1NC(=O)c1cccnc1N2C1CC1        AC50   > 10 µM
29     C[N+]1(C)CCC(=C(c2ccccc2)c2ccccc2)CC1        AC50   > 30 µM
30  CC(=O)[C@H]1CC[C@H]2[C@@H]3C[C@H](C)C4=CC(=O)CC[C@]4(C)[C@H]3[C@@H](O)C[C@]12C        AC50   > 10 µM

---

Molecular target: Glutamate receptor ionotropic, NMDA 1 (Rattus norvegicus, UniProt P35439); further: assay procedure not described here
Recorded AC50 values for a group of compounds are listed next.
Value kind: AC50

>>> print(df.to_string())
                                    compound                             tested_target   result
 0                  CC(=O)Nc1ccc(CC(=O)O)cc1  Glutamate receptor ionotropic, NMDA 1 (Rattus norvegicus, UniProt P35439)  > 30 µM
 1  COC(=O)[C@H]1[C@H]2C[C@@H]3c4[nH]c5cc(OC)ccc5c4CCN3C[C@H]2C[C@@H](OC(=O)c2cc(OC)c(OC)c(OC)c2)[C@@H]1OC  Glutamate receptor ionotropic, NMDA 1 (Rattus norvegicus, UniProt P35439)  > 10 µM
 2            O=C(O)Cc1ccccc1Oc1ccc(Cl)cc1Cl  Glutamate receptor ionotropic, NMDA 1 (Rattus norvegicus, UniProt P35439)  > 10 µM
 3  COc1cc(C)c(/C=C/C(C)=C/C=C/C(C)=C/C(=O)O)c(C)c1C  Glutamate receptor ionotropic, NMDA 1 (Rattus norvegicus, UniProt P35439)  > 10 µM
 4  C[N+](C)(C)CCOP(=O)(O)OP(=O)([O-])OC[C@H]1O[C@@H](n2ccc(N)nc2=O)[C@H](O)[C@@H]1O  Glutamate receptor ionotropic, NMDA 1 (Rattus norvegicus, UniProt P35439)  > 30 µM
 5  COc1ccc(CN2CCN(C(c3ccc(F)cc3)c3ccc(F)cc3)CC2)c(OC)c1OC  Glutamate receptor ionotropic, NMDA 1 (Rattus norvegicus, UniProt P35439)  > 30 µM
 6  CCC(=O)O[C@](Cc1ccccc1)(c1ccccc1)[C@H](C)CN(C)C  Glutamate receptor ionotropic, NMDA 1 (Rattus norvegicus, UniProt P35439)  > 10 µM
 7   CCOC(=O)c1ncn2c1CN(C)C(=O)c1cc(F)ccc1-2  Glutamate receptor ionotropic, NMDA 1 (Rattus norvegicus, UniProt P35439)  > 30 µM
 8  CCC(=O)O[C@]1(C(=O)CCl)[C@@H](C)C[C@H]2[C@@H]3CCC4=CC(=O)C=C[C@]4(C)[C@@]3(F)[C@@H](O)C[C@@]21C [CLOBETASOL PROPIONATE]  Glutamate receptor ionotropic, NMDA 1 (Rattus norvegicus, UniProt P35439)  > 30 µM
 9                COc1ccc2cc(CCC(C)=O)ccc2c1  Glutamate receptor ionotropic, NMDA 1 (Rattus norvegicus, UniProt P35439)  > 10 µM
10  CCN1CCCC1CNC(=O)c1cc(S(=O)(=O)CC)ccc1OC (configuration not stated) [SULTOPRIDE]  Glutamate receptor ionotropic, NMDA 1 (Rattus norvegicus, UniProt P35439)  > 30 µM
11  COc1ccc([C@@H]2CC(=O)c3c(O)cc(O)cc3O2)cc1O  Glutamate receptor ionotropic, NMDA 1 (Rattus norvegicus, UniProt P35439)  > 10 µM
12                       CCOC(=O)c1ccc(N)cc1  Glutamate receptor ionotropic, NMDA 1 (Rattus norvegicus, UniProt P35439)  > 10 µM
13  C[C@]12C=CC(=O)C=C1CC[C@@H]1[C@@H]2CC[C@]2(C)OC(=O)CC[C@@H]12  Glutamate receptor ionotropic, NMDA 1 (Rattus norvegicus, UniProt P35439)  > 10 µM
14         O=C(O)c1cccnc1Nc1cccc(C(F)(F)F)c1  Glutamate receptor ionotropic, NMDA 1 (Rattus norvegicus, UniProt P35439)  > 10 µM
15           CN1CCN=C(c2ccccc2)c2cc(Cl)ccc21  Glutamate receptor ionotropic, NMDA 1 (Rattus norvegicus, UniProt P35439)  > 30 µM
16  CC(=O)[C@H]1CC[C@H]2[C@@H]3C[C@H](C)C4=CC(=O)CC[C@]4(C)[C@H]3[C@@H](O)C[C@]12C  Glutamate receptor ionotropic, NMDA 1 (Rattus norvegicus, UniProt P35439)  > 10 µM
17  CC(CN1c2ccccc2Sc2ccccc21)N(C)C (configuration not stated)  Glutamate receptor ionotropic, NMDA 1 (Rattus norvegicus, UniProt P35439)  > 10 µM
18  C[C@]12C/C(=C/O)C(=O)C[C@@H]1CC[C@@H]1[C@@H]2CC[C@@]2(C)[C@H]1CC[C@]2(C)O  Glutamate receptor ionotropic, NMDA 1 (Rattus norvegicus, UniProt P35439)  > 30 µM
19  CC1=C(C(=O)OC(C)C)C(c2cccc([N+](=O)[O-])c2)C(C(=O)OC2CN(C(c3ccccc3)c3ccccc3)C2)=C(N)N1 (configuration not stated)  Glutamate receptor ionotropic, NMDA 1 (Rattus norvegicus, UniProt P35439)  > 30 µM
20               O=C1c2ccccc2C(=O)C1c1ccccc1  Glutamate receptor ionotropic, NMDA 1 (Rattus norvegicus, UniProt P35439)  > 10 µM
21  O=C(c1cc(Cc2n[nH]c(=O)c3ccccc23)ccc1F)N1CCN(C(=O)C2CC2)CC1  Glutamate receptor ionotropic, NMDA 1 (Rattus norvegicus, UniProt P35439)  > 10 µM
22  CCCc1nc2c(C)cc(-c3nc4ccccc4n3C)cc2n1Cc1ccc(-c2ccccc2C(=O)O)cc1  Glutamate receptor ionotropic, NMDA 1 (Rattus norvegicus, UniProt P35439)  > 30 µM
23               CN[C@]1(c2ccccc2Cl)CCCCC1=O  Glutamate receptor ionotropic, NMDA 1 (Rattus norvegicus, UniProt P35439)  0.79 µM
24   CNC(=C[N+](=O)[O-])NCCSCc1csc(CN(C)C)n1  Glutamate receptor ionotropic, NMDA 1 (Rattus norvegicus, UniProt P35439)  > 10 µM
25  CC(CN(C)C)C(C)(O)Cc1ccc(Cl)cc1 (configuration not stated)  Glutamate receptor ionotropic, NMDA 1 (Rattus norvegicus, UniProt P35439)  > 10 µM
26  NS(=O)(=O)c1cc2c(cc1Cl)N=C(CSCc1ccccc1)NS2(=O)=O [BENZTHIAZIDE]  Glutamate receptor ionotropic, NMDA 1 (Rattus norvegicus, UniProt P35439)  > 10 µM
